Test system: serum cholesterol and serum triglyceride
Experiment: Hypolipidemic activity in rats (serum cholesterol and triglyceride, one-week diet)
Format: in vivo
Conditions: male SD rats, 50 mg % in diet
Measured quantity: Decrease (%) in serum cholesterol

[[record]]
molecule = "O=C(O)Cc1nc(-c2ccc(Cl)cc2)oc1-c1ccsc1"
measured_quantity = "Decrease (%) in serum cholesterol"
reported_measurement = 18

[[record]]
molecule = "O=C(O)Cc1nc(-c2ccc(F)cc2)oc1-c1cccs1"
measured_quantity = "Decrease (%) in serum cholesterol"
reported_measurement = 17

[[record]]
molecule = "O=C(O)Cc1nc(-c2ccc(F)cc2)oc1-c1ccsc1"
measured_quantity = "Decrease (%) in serum cholesterol"
reported_measurement = 23

[[record]]
molecule = "CCOC(=O)Cc1nc(-c2ccc(F)cc2)oc1-c1ccsc1"
measured_quantity = "Decrease (%) in serum cholesterol"
reported_measurement = 19

[[record]]
molecule = "CCCCCOC(=O)Cc1nc(-c2ccccc2)oc1-c1ccsc1"
measured_quantity = "Decrease (%) in serum cholesterol"
reported_measurement = 20

[[record]]
molecule = "CCOC(=O)C(C)(C)Oc1ccc(Cl)cc1 [Clofibrate, reference compound]"
measured_quantity = "Decrease (%) in serum cholesterol"
reported_measurement = 15

[[record]]
molecule = "CCCCCOC(=O)Cc1nc(-c2ccc(Cl)cc2)oc1-c1ccsc1"
measured_quantity = "Decrease (%) in serum cholesterol"
reported_measurement = 19

[[record]]
molecule = "CCOC(=O)Cc1nc(-c2ccc(F)cc2)oc1-c1cccs1"
measured_quantity = "Decrease (%) in serum cholesterol"
reported_measurement = 17

